Give Percent Effect for every item shown.
test system: Tyrosyl-tRNA synthetase, putative (Trypanosoma cruzi (strain CL Brener)) (UniProt Q4DSP6)
Sequence (whole entry): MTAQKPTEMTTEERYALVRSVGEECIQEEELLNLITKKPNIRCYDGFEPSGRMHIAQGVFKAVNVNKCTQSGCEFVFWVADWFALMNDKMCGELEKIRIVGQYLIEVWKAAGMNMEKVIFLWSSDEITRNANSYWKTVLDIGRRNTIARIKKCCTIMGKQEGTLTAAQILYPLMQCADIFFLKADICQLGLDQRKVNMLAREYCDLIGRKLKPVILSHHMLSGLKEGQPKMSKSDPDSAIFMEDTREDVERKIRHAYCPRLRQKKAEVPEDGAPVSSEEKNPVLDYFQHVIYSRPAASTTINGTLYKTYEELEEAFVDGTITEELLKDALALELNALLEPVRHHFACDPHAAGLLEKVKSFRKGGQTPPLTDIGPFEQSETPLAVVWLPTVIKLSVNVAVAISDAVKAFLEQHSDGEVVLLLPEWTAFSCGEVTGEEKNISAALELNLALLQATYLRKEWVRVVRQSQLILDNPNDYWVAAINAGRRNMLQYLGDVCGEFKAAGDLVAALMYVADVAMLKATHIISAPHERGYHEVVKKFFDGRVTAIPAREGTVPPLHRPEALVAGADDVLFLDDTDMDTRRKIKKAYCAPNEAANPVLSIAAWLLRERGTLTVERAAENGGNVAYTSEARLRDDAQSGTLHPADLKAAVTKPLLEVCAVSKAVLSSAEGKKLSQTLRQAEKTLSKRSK
test method notes: Trypanosoma cruzi tyrosyl tRNA synthetase (TcYRS) _High Tyrosine SOP; further: in the data most compounds retested in dose-response had high values
Format: functional
Set-up: scale not given: direction of the effect not stated beside the values
test context: 30 µM
Quick note: give the figure in %, leave out the unit.

// compound Cc1nc(C)c(C(=O)NCCNC(=O)Cc2cccc(F)c2)s1 , assay Tyrosyl-tRNA synthetase, putative (Trypanosoma cruzi (strain CL Brener)) (UniProt Q4DSP6), Percent Effect value: 9.9

// compound CCc1[nH]ncc1C(=O)N1CCCN(Cc2cnn(C)c2)CC1 , assay Tyrosyl-tRNA synthetase, putative (Trypanosoma cruzi (strain CL Brener)) (UniProt Q4DSP6), Percent Effect value: 5.71

// compound COc1ccc(CS(=O)(=O)CC(=O)NCc2ccccc2F)cc1F , assay Tyrosyl-tRNA synthetase, putative (Trypanosoma cruzi (strain CL Brener)) (UniProt Q4DSP6), Percent Effect value: 4.25

// compound CCCC1CCCN(Cc2csc(-c3cnn(C)c3)n2)CC1 (configuration not stated) , assay Tyrosyl-tRNA synthetase, putative (Trypanosoma cruzi (strain CL Brener)) (UniProt Q4DSP6), Percent Effect value: 8.33

// compound COc1ccc(C(CNC(=O)Nc2cn[nH]c2)N2CCOCC2)cc1 (configuration not stated) , assay Tyrosyl-tRNA synthetase, putative (Trypanosoma cruzi (strain CL Brener)) (UniProt Q4DSP6), Percent Effect value: 10.5

// compound COCC1Cn2nnc(-c3cnn(C)c3)c2CN1Cc1ccco1 (configuration not stated) , assay Tyrosyl-tRNA synthetase, putative (Trypanosoma cruzi (strain CL Brener)) (UniProt Q4DSP6), Percent Effect value: 11.9

// compound CC(=O)NCCC1CCCCN1S(=O)(=O)c1cccc(C#N)c1 (configuration not stated) , assay Tyrosyl-tRNA synthetase, putative (Trypanosoma cruzi (strain CL Brener)) (UniProt Q4DSP6), Percent Effect value: 2.08

// compound Cc1oncc1C(=O)N1CCC2(CCN(Cc3ccccn3)C2=O)C1 (configuration not stated) , assay Tyrosyl-tRNA synthetase, putative (Trypanosoma cruzi (strain CL Brener)) (UniProt Q4DSP6), Percent Effect value: 2.08

// compound Cc1cnn(CC(C)NCc2ccc(OCc3ccncc3)cc2)c1 (configuration not stated) , assay Tyrosyl-tRNA synthetase, putative (Trypanosoma cruzi (strain CL Brener)) (UniProt Q4DSP6), Percent Effect value: 5.21

// compound CC(NC(=O)NCc1ccc(Cl)cc1)c1ccccn1 (configuration not stated) , assay Tyrosyl-tRNA synthetase, putative (Trypanosoma cruzi (strain CL Brener)) (UniProt Q4DSP6), Percent Effect value: 2.08

// compound CC1(C(=O)N2CCOCC2)CN(Cc2ccccn2)CCO1 (configuration not stated) , assay Tyrosyl-tRNA synthetase, putative (Trypanosoma cruzi (strain CL Brener)) (UniProt Q4DSP6), Percent Effect value: 1.07

// compound O=C(NCC1CCS(=O)(=O)C1)c1sccc1-c1ccc(F)cc1 (configuration not stated) , assay Tyrosyl-tRNA synthetase, putative (Trypanosoma cruzi (strain CL Brener)) (UniProt Q4DSP6), Percent Effect value: 4.3

====

test system: AMP-activated protein kinase, AMPK (Homo sapiens) (UniProt P54646+O43741+P54619+Q9UGJ0+Q9Y478+Q13131+Q9UGI9)
test method notes: AMP-dependent Kinase enzyme assay. An in vitro enzyme assay that detects ADP turnover that is directly proportional to AMPK activity. This uses naive AMPK that is activated during the assay with MK-8722
Type: functional
Set-up: scale not given: direction of the effect not stated beside the values
test context: 30 µM
Give Percent Effect for every item shown.
Quick note: give the figure in %, leave out the unit.

Percent Effect reported for this compound CCS(=O)(=O)N1CCC(c2nnc(CN3CCCC3)n2C2CC2)CC1 : -4.77

Percent Effect reported for this compound CCc1ccc(CNC(=O)N2CCN(Cc3cc(C)no3)CC2)s1 : 7.06

Percent Effect reported for this compound CCC(=O)Nc1ccc(C(C)NC(=O)COCCOC)cc1 (configuration not stated) : -1.87

Percent Effect reported for this compound Cc1cc(-c2cnc(N3CCNC(=O)C3)nc2-c2cccnc2C)on1 : 5.98

Percent Effect reported for this compound O=C(CC1CC1)NCc1cn2c(n1)CN(CC1CC1)CC2 : 16.6

Percent Effect reported for this compound Nc1nc2c(c(=O)[nH]1)CCN(C(=O)c1cccc3nccnc13)C2 : -11.5

Percent Effect reported for this compound Cc1ccc(C(CNCC2CC2)N2CCOCC2)s1 (configuration not stated) : -0.221

Percent Effect reported for this compound CC(C)c1nccn1CCCNC(=O)c1ccc(-c2cncnc2)nc1 : -10.9

Percent Effect reported for this compound CCc1n[nH]c(C2CN(C(=O)c3cnns3)CCO2)n1 (configuration not stated) : 2.14

Percent Effect reported for this compound Cc1cncc(C(=O)N2CCC(Cn3cc(-c4ccsc4)nn3)CC2)c1 : 0.205

Percent Effect reported for this compound O=C(Cc1ccc2c(c1)OCO2)N1CCN(c2cnccn2)CC1 : -3.5

Percent Effect reported for this compound Cc1ncc2c(n1)CCCC2NC(=O)c1ccncc1 (configuration not stated) : -3.85

====

Give Percent Effect for every item shown.
Test system: Trypanosoma cruzi
test method notes: Trypanosoma cruzi phosphomannomutase and mannose-1-phosphate guanylyltransferase assay
Assay type: functional
Design: scale not given: direction of the effect not stated beside the values
test context: 10 µM
Quick note: give the figure in %, leave out the unit.

// compound CC(C)n1cc(CN2CCCN(C(=O)c3ccc[nH]3)CC2)cn1 , assay Trypanosoma cruzi, Percent Effect value: 2.73

// compound O=C(COc1ccc2c(c1)CCC2)N1CCOCC1c1ncon1 (stereo unspecified) , assay Trypanosoma cruzi, Percent Effect value: -4.62

// compound COc1ccc2nnc(CCCC(=O)NCc3cccn3C)n2n1 , assay Trypanosoma cruzi, Percent Effect value: 1.57

// compound CCn1nccc1CNC(=O)C(C)n1cc2c(n1)c(C)nn2C (stereo unspecified) , assay Trypanosoma cruzi, Percent Effect value: 0.197

// compound CCc1ncncc1C(=O)N1CCN(Cc2ccco2)CC1 , assay Trypanosoma cruzi, Percent Effect value: -4.2

// compound CCS(=O)(=O)NC[C@]12COC[C@H]1CN(Cc1cccc(OC)c1)C2 , assay Trypanosoma cruzi, Percent Effect value: 6.16

// compound Cc1cnc2c(c1NCc1ccncc1)c(=O)n(C)c(=O)n2C , assay Trypanosoma cruzi, Percent Effect value: -5.68

// compound CCCOc1ccc(NC(=O)NCCC(=O)N(C)C)cc1Cl , assay Trypanosoma cruzi, Percent Effect value: 4.5

// compound CCCn1[nH]cc/c1=N\C(=O)CN1CCn2c(nnc2C2CC2)C1 , assay Trypanosoma cruzi, Percent Effect value: -4.13

// compound CC(C)(C)c1n[nH]cc1CN1CCc2nc3ccsc3c(=O)n2CC1 , assay Trypanosoma cruzi, Percent Effect value: 2.96

// compound Cc1nc2ccccc2c(=O)n1CCC(=O)N1CCNC(=O)C1 , assay Trypanosoma cruzi, Percent Effect value: 0.94

====

test system: Tyrosyl-tRNA synthetase, putative (Trypanosoma cruzi (strain CL Brener)) (UniProt Q4DSP6)
test method notes: Trypanosoma cruzi tyrosyl tRNA synthetase (TcYRS) SOP
Assay type: functional
Parameters: scale not given: direction of the effect not stated beside the values
test context: 30 µM
quantity name: Percent Effect (%)
Quick note: give the figure in %, leave out the unit.

Percent Effect reported for this molecule O=C([C@H]1C[C@H]2OCC[C@H]2N(C(=O)C2CCOCC2)C1)N1CCCCO1 : 22.5

Percent Effect reported for this molecule CN(C)c1ncc(CN2CCC(c3nnsc3S(C)(=O)=O)CC2)cn1 : 1.3

Percent Effect reported for this molecule O=C(CCNC(=O)C1CCCC1)NCc1cccnc1-n1cncn1 : 25.9

Percent Effect reported for this molecule Cc1cnc2c(S(=O)(=O)NCC3CCN(C4CC4)C3)cccc2c1 (centres undefined) : 6.17

Percent Effect reported for this molecule CCCNC(=O)CN1CCN(Cc2csc(C(C)(C)C)n2)CC1 : -3.8

Percent Effect reported for this molecule CCCN1CCCn2nc(CNC(=O)CCc3scnc3C)cc2C1 : 17.9

Percent Effect reported for this molecule CCc1nc(C2CCCN(C(=O)c3cccc4cn[nH]c34)C2)no1 (centres undefined) : 1.22

Percent Effect reported for this molecule CSCC(=O)N1CCC2(CC1)c1ccccc1CC2O (centres undefined) : 11.1

Percent Effect reported for this molecule CS(=O)(=O)N1CCC(C(=O)NC(Cc2ccsc2)c2ccccn2)CC1 (centres undefined) : 9.09

Percent Effect reported for this molecule Cc1cc(C2CCCN(C(=O)c3c(C)noc3C)C2)n[nH]1 (centres undefined) : 7.79

Percent Effect reported for this molecule CC(C(=O)NCc1ccc(-n2cncn2)nc1)n1ccnc1 (centres undefined) : 2.35

Percent Effect reported for this molecule CC(C)c1nccn1CCCNC(=O)c1ccc(-c2cncnc2)nc1 : 13.6

Percent Effect reported for this molecule CCn1nc(CC(C)C)cc1C(=O)N1CC[C@@H](O)C1 : 13.6

Percent Effect reported for this molecule O=C(c1cnn(-c2ccccc2F)c1)N1CCN(CCO)CC1 : 3.7

Percent Effect reported for this molecule CC(C)N(C)Cc1cnc2n1CCN(C(=O)NC1CCCC1)C2 : 1.28

Percent Effect reported for this molecule CN(C)C(=O)NC[C@H]1OC[C@@H]2CCN(Cc3ccoc3)C[C@@H]21 : 10

Percent Effect reported for this molecule COc1ccc(NCc2nc(=O)n(CCC(C)C)[nH]2)cc1 : 10.4

Percent Effect reported for this molecule CCn1cc2c(n1)CN(CC1CC1)CC2COCC1CC1 (centres undefined) : 8.97

Percent Effect reported for this molecule Cc1cnn(CC2CN(Cc3cccc(OCC(N)=O)c3)CCO2)c1 (centres undefined) : -2.44

Percent Effect reported for this molecule CN(C)C(=O)N1CCN(CCn2nc3ccccn3c2=O)CC1 : 5.2

Percent Effect reported for this molecule COCC1CN(C(=O)CNC(C)=O)Cc2ncnn2C1 (centres undefined) : 13.6

Percent Effect reported for this molecule COc1cc(CNC(=O)c2c(C)noc2C(C)C)ccn1 : 21.9

Percent Effect reported for this molecule CCc1nccc(CN2CCCC(c3nn(C)c(=O)n3CC)C2)n1 (centres undefined) : 13.6

Percent Effect reported for this molecule CC(C)Oc1ccc(CSc2nnc(CN3CCCC3=O)o2)cc1 : 6.17

meta.source: ChEMBL document CHEMBL3988442
